# run_description: Plasma concentration in Balb/c mouse at 10 mg/kg, sc administered as single dose using MC/EtOH formulation measured after 3 hrs by LC-MS/MS analysis
# Assay type: ADME, organism-based
measure: concentration at 3 h (ng/mL)

compound_structure	display_unit	result
Cc1ccc(CN(Cc2ccc(C(=O)N3CCc4ccc(OS(N)(=O)=O)cc4C3)cc2)Cc2ccco2)s1	ng/mL	398

These measurements were taken from ChEMBL document CHEMBL4396876.
